# tested.on: Bruton's Tyrosine Kinase (BTK), inactivated state (Homo sapiens (Human))
# Sequence (Q06187 whole entry): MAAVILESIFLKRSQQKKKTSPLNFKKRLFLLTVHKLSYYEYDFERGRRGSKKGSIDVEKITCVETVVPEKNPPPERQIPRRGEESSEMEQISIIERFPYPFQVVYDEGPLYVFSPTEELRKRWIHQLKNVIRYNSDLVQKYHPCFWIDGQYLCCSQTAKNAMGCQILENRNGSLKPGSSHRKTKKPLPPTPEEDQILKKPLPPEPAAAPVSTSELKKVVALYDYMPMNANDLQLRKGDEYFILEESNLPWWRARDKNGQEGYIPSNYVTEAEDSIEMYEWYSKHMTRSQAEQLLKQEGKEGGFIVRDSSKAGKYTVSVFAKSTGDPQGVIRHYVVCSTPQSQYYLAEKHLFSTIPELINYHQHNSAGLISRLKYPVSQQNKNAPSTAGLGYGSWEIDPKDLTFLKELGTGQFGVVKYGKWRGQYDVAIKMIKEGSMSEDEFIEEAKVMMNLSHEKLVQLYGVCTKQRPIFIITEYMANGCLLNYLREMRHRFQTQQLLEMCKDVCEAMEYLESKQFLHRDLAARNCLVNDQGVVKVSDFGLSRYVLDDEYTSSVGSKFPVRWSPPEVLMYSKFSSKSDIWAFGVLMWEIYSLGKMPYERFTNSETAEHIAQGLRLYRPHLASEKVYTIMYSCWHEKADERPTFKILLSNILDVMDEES
# test.description: Bruton's Tyrosine Kinase (BTK) Inhibition TR-FRET (Time Resolved FRET) competition assay
# assay.context: Kinase Tracer 178, BTK-Eu, 18-24 h at 14° C.
pIC50: −log10 of the molar value.
measured.endpoint: pIC50

Cc1cccc(CC(=O)N[C@@H]2CCCN(c3nc(C(N)=O)c(Nc4ccccn4)s3)C2)c1 ... 5.12
CC(C)(C)OC(=O)N[C@@H]1CCCN(c2nc(C(N)=O)c(Nc3ccccn3)s2)C1 ... 5.92
NC(=O)c1nc(N2CCC[C@@H](NC(=O)N3Cc4ccc(Cl)cc4C3)C2)sc1Nc1ccccn1 ... 5.11
CC(=O)N[C@@H]1CCCN(c2nc(C(N)=O)c(Nc3ccccn3)s2)C1 ... 5.22

A = CC(C)(C)c1ccc(C(=O)N[C@@H]2CCCN(c3nc(C(N)=O)c(Nc4ccccn4)s3)C2)cn1
B = CC(C)(C)c1ccc(C(=O)N[C@@H]2CCCN(c3nc(C(N)=O)c(Nc4ccccn4)s3)C2)cc1
Task: Which value of pIC50 is greater, the one for A or the one for B ? Identify your selection by its label.
Result: B

P = NC(=O)c1nc(N2CCC[C@@H](NC(=O)Cc3ccccc3)C2)sc1Nc1ccccn1
Q = NC(=O)c1nc(N2CCC[C@@H](NS(=O)(=O)c3ccccc3)C2)sc1Nc1ccccn1
Task: Which value of pIC50 is greater, the one for P or the one for Q ? Identify your selection by its label.
Result: Q
